testName: qHTS for Inhibitors of human tyrosyl-DNA phosphodiesterase 1 (TDP1): qHTS in cells in absence of CPT; also: nearly all actives have a fitted effect of over 55% in size
testConditions: DT40 Tdp1-/- hTDP1 cells, no CPT, ATP luminescence, 48 h
Hit rate of the full screen: of about 420,000 compounds, about 64,000 (15%) were called active. Inconclusive results (about 27%) are left out. Calls follow the shape of the dose curve; as a rule, active = well fitted inhibition curve with a large enough effect; inconclusive = small, poorly fitted or top-dose-only effect; inactive = flat fitted curve, though single readings scatter. Not all results are given here.
Choose one outcome from this list and give only that: active, inactive

Some solved entries appear below for comparison.
>>> discretelabel("CCCc1nc(SCC(=O)Nc2ccccc2OC)c2c(=O)n(C)c(=O)n(C)c2n1")
"active"
>>> discretelabel("Cc1c(Cl)c([N+](=O)[O-])nn1CCCC(=O)NC(C)c1ccccc1 (stereo unspecified)")
"inactive"
>>> discretelabel("C[n+]1cc(-c2ccccc2)oc1-c1ccccc1")
"inactive"
>>> discretelabel("CCCc1cc(=O)oc2c(C)c(OCC(=O)NCc3ccccn3)ccc12")
"inactive"

Asked: Fill in: this test's call for Cc1ccc(/C([O-])=C(/C(=S)NCc2ccco2)[n+]2ccccc2)cc1[N+](=O)[O-] is ___
Given back: inactive

Asked: Fill in: this test's call for Cc1ccc(-n2c(C)nnc2SCC(=O)NC2CC2)cc1 is ___
Given back: inactive
